# protocol.summary: Fluorescence excitation and emission spectrum of the dyes
# Type: physicochemical
# reported.conditions: solvent not given
measured.endpoint: Em / emission max (nm)
Numeric only. Scale: nm

mol_smiles=O=C(Cc1ccc(CN2/C(=C/C=C/c3oc4ccccc4[n+]3Cc3ccc(CC(=O)ON4C(=O)CCC4=O)cc3)Oc3ccccc32)cc1)ON1C(=O)CCC1=O.[Br-] measured_endpoint="Em / emission max" units_text=nm reported_result=507
mol_smiles=Cc1ccc(CN2/C(=C/C=C/C=C/C3=[N+](Cc4ccc(C)cc4)c4ccccc4C3(C)C)C(C)(C)c3ccccc32)cc1.[Br-] measured_endpoint="Em / emission max" units_text=nm reported_result=674

Now for the compound whose Em / emission max we want.
Look up and state reported Em / emission max for `CC1(C)C(/C=C/C=C/C=C2\Oc3ccccc3N2Cc2ccc(CC(=O)ON3C(=O)CCC3=O)cc2)=[N+](Cc2ccc(CC(=O)ON3C(=O)CCC3=O)cc2)c2ccc(S(=O)(=O)[O-])cc21`
642

---

# protocol.summary: Fluorescence excitation and emission spectrum of the dyes
# Assay type: physicochemical
# reported.conditions: solvent not given
// reported Em / emission max for each item listed
Numeric only. Scale: nm

Record excerpt, results attached:
molecule=CC1(C)C(/C=C/C=C/C=C2/N(Cc3ccc(CC(=O)O)cc3)c3ccccc3C2(C)C)=[N+](Cc2ccc(CC(=O)O)cc2)c2ccccc21.[Br-] reported_result=642
molecule=O=C(O)Cc1ccc(CN2/C(=C/C=C/c3oc4ccccc4[n+]3Cc3ccc(CC(=O)O)cc3)Oc3ccccc32)cc1.[Br-] reported_result=507
molecule="CC(C(=O)O)c1ccc(C[N+]2=C(/C=C/C=C3\\Oc4ccccc4N3Cc3ccc(CC(=O)O)cc3)C(C)(C)c3cc(S(=O)(=O)[O-])ccc32)cc1 (centres unmarked)" reported_result=542
molecule="CC(C(=O)ON1C(=O)CCC1=O)c1ccc(C[N+]2=C(/C=C/C=C3\\Oc4ccccc4N3Cc3ccc(CC(=O)ON4C(=O)CCC4=O)cc3)C(C)(C)c3cc(S(=O)(=O)[O-])ccc32)cc1 (centres unmarked)" reported_result=541

Look up and state reported Em / emission max for `Cc1ccc(CN2/C(=C/C=C/C3=[N+](Cc4ccc(C)cc4)c4ccccc4C3(C)C)C(C)(C)c3ccccc32)cc1.[Br-]`
574

---

// reported Ex for each item listed
# protocol.summary: Fluorescence excitation and emission spectrum of the dyes
# Type: physicochemical
# reported.conditions: in Methanol
Numeric only. Scale: nm

compound="O=C(Cc1ccc(CN2/C(=C/C=C/c3oc4ccccc4[n+]3Cc3ccc(CC(=O)ON4C(=O)CCC4=O)cc3)Oc3ccccc32)cc1)ON1C(=O)CCC1=O.[Br-] [Compound No. 10]" reported_result=490
compound="CC1(C)C(/C=C/C=C/C=C2\\Oc3ccccc3N2Cc2ccc(CC(=O)ON3C(=O)CCC3=O)cc2)=[N+](Cc2ccc(CC(=O)ON3C(=O)CCC3=O)cc2)c2ccc(S(=O)(=O)[O-])cc21 [Compound No. 14]" reported_result=609
compound="O=C(O)Cc1ccc(CN2/C(=C/C=C/c3oc4ccccc4[n+]3Cc3ccc(CC(=O)O)cc3)Oc3ccccc32)cc1.[Br-] [Compound No. 9]" reported_result=489

Look up and state reported Ex for Cc1ccc(CN2/C(=C/C=C/C=C/C3=[N+](Cc4ccc(C)cc4)c4ccccc4C3(C)C)C(C)(C)c3ccccc32)cc1.[Br-] [Compound No. 19]
650

Look up and state reported Ex for CC1(C)C(/C=C/C=C/C=C2/N(Cc3ccc(CC(=O)O)cc3)c3ccccc3C2(C)C)=[N+](Cc2ccc(CC(=O)O)cc2)c2ccccc21.[Br-] [Compound No. 16]
650
